# ASSAY TEXT: Cytotoxicity against HEL cells assessed as change in cell morphology
# Format: cell-based
# SETTINGS: human
QUANTITY NAME: MCC (µg/mL)
The answer is to be given in µg/mL; state only the numeric part.

// solved cases for MCC follow
Determine from records and report MCC for "CS(=O)(=O)Nc1ccc(NC(=S)NC2CCCCC2)cc1Oc1ccccc1"
40

Provide measured MCC value, entry: "C=CCNC(=S)Nc1ccc(NS(C)(=O)=O)c(Oc2ccccc2)c1"
200

For "CCCNC(=S)Nc1ccc(NS(C)(=O)=O)c(Oc2ccccc2)c1" , write its MCC.
200

Others:
State its MCC: "CS(=O)(=O)Nc1ccc(NC(=S)Nc2ccc([N+](=O)[O-])cc2)cc1Oc1ccccc1"
40

Consider the molecule "CS(=O)(=O)Nc1ccc(NC(=S)NCc2ccccc2)cc1Oc1ccccc1" and give its recorded MCC.
40

State its MCC for this molecule: "CS(=O)(=O)Nc1ccc(NC(=S)NCCc2ccccc2)cc1Oc1ccccc1"
40
